- Tested on: MCF7
- method: NCI tumour cell line growth inhibition, 48 h
Calls of active or inactive are those of the source. Rule as the data show it: active = GI50 up to about 1.1 µM and inactive = higher.
quantity_measured: GI50

Recorded results for 5 compounds are shown here.
[[record]]
compound = "OCC(O)COCn1cc(Cn2ncc3c(NCc4ccccc4)ncnc32)nn1 (stereo not given)"
quantity_measured = "GI50"
measurement = "> 100 µM (inactive)"

[[record]]
compound = "C[C@@]12[C@H]3CC[C@@H]1[C@H](O)C(=O)N2CC3"
quantity_measured = "GI50"
measurement = "> 100 µM (inactive)"

[[record]]
compound = "O=C1C(=CNc2ccccc2Cl)C(=O)N(c2ccccc2)C(=O)N1c1ccccc1"
quantity_measured = "GI50"
measurement = "> 100 µM (inactive)"

[[record]]
compound = "CCOC(=O)Nc1cc2ccccc2c(/N=N/c2ccccc2)c1O"
quantity_measured = "GI50"
measurement = "56.4 µM (inactive)"

[[record]]
compound = "CCOC(=O)c1sc2c(c1OC(=O)c1ccccc1)c(=O)n(-c1ccccc1)c(=S)n2-c1ccccc1"
quantity_measured = "GI50"
measurement = "29.4 µM (inactive)"


In: If you can, please state the reported GI50 value of CN(C)c1ccc(-c2ccc(N(C)C)c3n[se]nc23)c2n[se]nc12 .
Out: > 100 µM (inactive)

In: If you can, please state the reported GI50 value of Cc1cccc2c1C(=O)[C@](C)([C@]1(C)Nc3cccc(C)c3C1=O)N2 .
Out: 45.4 µM (inactive)

In: If you can, please state the reported GI50 value of CCOC(=O)C1=C(N2CCCC2)C(=O)C(C(=O)OCC)C1 (stereo not given) .
Out: > 100 µM (inactive)

In: If you can, please state the reported GI50 value of CNC(=O)OCC1=C(COC(=O)NC)CN(c2ccccc2)C1 .
Out: > 100 µM (inactive)

In: If you can, please state the reported GI50 value of Oc1ccc(Cl)cc1Sc1cc(Cl)ccc1O [FENTICLOR] .
Out: 17.3 µM (inactive)

---

- System: UO-31
- method: NCI tumour cell line growth inhibition, 48 h
The source made the active and inactive calls. Cut-off read from the data, not from the text of the source: active = GI50 up to about 1.1 µM and inactive = higher.
Outcome field: choose from active, inactive

[[record]]
molecule = "N=C1OC(c2ccc3c(c2)OCO3)C(NNS(=O)(=O)c2ccccc2)=C1O (stereo not given)"
tested_target = "UO-31"
group = "inactive"

[[record]]
molecule = "CC1C(c2ccccc2)N(C)C(c2ccccc2)C(C)C1(O)c1ccccc1 (stereo not given)"
tested_target = "UO-31"
group = "inactive"

[[record]]
molecule = "O=C(NCCCl)Nc1ccccc1"
tested_target = "UO-31"
group = "inactive"

[[record]]
molecule = "Cc1nc2c(sc3nc4ccccc4n32)c(=O)[nH]1"
tested_target = "UO-31"
group = "inactive"

[[record]]
molecule = "COc1cc(C(=O)C/C(CCC(=O)Nc2ccc(Cl)cc2Cl)=N/Nc2nnc(C)n2N)ccc1O"
tested_target = "UO-31"
group = "inactive"


In: Tell me the recorded outcome of this test for COc1ccc(/C=C2\CCCc3ccccc3C2=O)cc1 .
Out: inactive

In: Tell me the recorded outcome of this test for O=C(O)C1=Cc2cccc3cccc(c23)C1=O .
Out: inactive

In: Tell me the recorded outcome of this test for C/C(=C\c1csc(C)n1)[C@@H]1C[C@@H]2O[C@]2(C)CCC[C@H](C)[C@H](O)[C@@H](C)C(=O)C(C)(C)[C@@H](O)CC(=O)O1 [PATUPILONE] .
Out: active

In: Tell me the recorded outcome of this test for COc1cc(/C=C2\CCC/C(=C\c3cc(OC)c(O)c(OC)c3)C2=O)cc(OC)c1O .
Out: inactive

In: Tell me the recorded outcome of this test for CC1=C2C(=O)O[C@@H](c3ccoc3)[C@]2(C)CCC1=O [FRAXINELLONONE] .
Out: inactive

---

- Test system: TK-10
- method: NCI tumour cell line growth inhibition, 48 h
The source made the active and inactive calls. No stated cut-off is given here; in the data, active = GI50 up to about 1.1 µM and inactive = higher.
# maps each entry to its GI50

Recorded results for 3 compounds are shown here.
[[record]]
compound = "CC(=O)O[C@H]1CCC2[C@@H]3CCC4c5nonc5CC[C@]4(C)C3CC[C@@]21C (some centres undefined)"
quantity_measured = "GI50"
measurement = "> 10 µM (inactive)"

[[record]]
compound = "COc1ccc(C(=CCC(C)C2CCC3[C@@H]4C(OC(C)=O)CC5CC(OC(C)=O)CC[C@]5(C)C4CC(OC(C)=O)[C@]23C)c2ccc(OC)cc2)cc1 (some centres undefined)"
quantity_measured = "GI50"
measurement = "> 100 µM (inactive)"

[[record]]
compound = "COC(=O)c1nc(-c2ccc(Cl)c(Cl)c2)nc2ccccc12"
quantity_measured = "GI50"
measurement = "34.6 µM (inactive)"


In: If you can, please state the reported GI50 value of COc1cc2c(cc1OCc1ccccc1)CNCC2 .
Out: > 100 µM (inactive)

In: If you can, please state the reported GI50 value of CC(=O)OCC1OC(n2c(C)c(C(C)=O)c(-c3cccc4ccccc34)c(C#N)c2=S)C(OC(C)=O)C(OC(C)=O)C1OC(C)=O (centres undefined) .
Out: > 100 µM (inactive)

In: If you can, please state the reported GI50 value of C[C@@H]1CC[C@@]2(C)C(C(=O)O)=CCCC2[C@@]1(C)CC(=O)c1ccoc1 (some centres undefined) .
Out: > 25 µM (inactive)

In: If you can, please state the reported GI50 value of CNC(=O)OCC1=C(COC(=O)NC)CN(c2ccccc2)C1 .
Out: > 100 µM (inactive)

In: If you can, please state the reported GI50 value of CSc1nc(Cl)c2c(n1)Sc1nc3ccccc3n1N=C2 .
Out: 33.7 µM (inactive)

In: If you can, please state the reported GI50 value of O=C1C2CCCCC2C(=O)N1n1c(Cc2ccc(Cl)cc2)n[nH]c1=O (centres undefined) .
Out: > 100 µM (inactive)

---

# maps each entry to its GI50
- Tested on: TK-10
- method: NCI tumour cell line growth inhibition, 48 h
Activity calls are given as the source filed them. No stated cut-off is given here; in the data, active = GI50 up to about 1.1 µM and inactive = higher.

Recorded results for 2 molecules are shown here.
[[record]]
molecule = "CC(=O)NCCC1CN(C(=O)/C=C/I)c2ccccc21 (centres undefined)"
quantity_measured = "GI50"
measurement = "1.42 µM (inactive)"

[[record]]
molecule = "CCOC(=O)CCC(NC(=O)OCc1ccccc1)C(=O)NC(CCC(=O)OCC)C(=O)NC(CCC(=O)OCC)C(=O)NC(CCC(=O)OCC)C(=O)NC(CCC(=O)OCC)C(=O)OCC (centres undefined)"
quantity_measured = "GI50"
measurement = "> 100 µM (inactive)"


In: If you can, please state the reported GI50 value of COC(=O)C1=C(\c2ccccc2)c2ccccc2C(=O)N(C2CCCCC2)/C=C\1 .
Out: 41.3 µM (inactive)

In: If you can, please state the reported GI50 value of Cc1ccc(Nc2c(C#N)[n+]([O-])c3cc(Cl)ccc3[n+]2[O-])cc1 .
Out: 29 µM (inactive)

---

- Test system: COLO 205
- method: NCI tumour cell line growth inhibition, 48 h
Calls of active or inactive are those of the source. Rule as the data show it: active = GI50 up to about 1.1 µM and inactive = higher.
Outcome field: choose from active, inactive

Past entries and their recorded results:
[[record]]
compound = "COc1cc2c(cc1OCCCCCN1C(=O)c3cccc4cccc(c34)C1=O)N=C[C@@H]1CCCN1C2=O"
tested_target = "COLO 205"
group = "active"

[[record]]
compound = "COc1ccc(NC(=O)CC(=O)N2N=C(N(CCC#N)c3ccccc3Cl)CC2c2ccccc2)cc1 (centres undefined)"
tested_target = "COLO 205"
group = "inactive"

[[record]]
compound = "COc1nc2c(c(O)c(C)c(=O)n2OC2OC(COC(C)=O)C(OC(C)=O)C(OC(C)=O)C2OC(C)=O)c(=O)n1C (centres undefined)"
tested_target = "COLO 205"
group = "inactive"

[[record]]
compound = "CCCNC(=O)N(C)C(=O)N1N=C(c2ccccc2)C1c1ccccc1 (centres undefined)"
tested_target = "COLO 205"
group = "inactive"


In: Tell me the recorded outcome of this test for COC(=O)c1cc2cc(OC)c(OC)cc2cc(C(=O)OC)c1=O .
Out: inactive

In: Tell me the recorded outcome of this test for CC(C)(CC(=O)Nc1ccccc1)C(=O)O .
Out: inactive

---

- Tested on: SNB-75
- method: NCI tumour cell line growth inhibition, 48 h
Active and inactive are the calls of the source. Rule as the data show it: active = GI50 up to about 1.1 µM and inactive = higher.
Outcome field: choose from label 1 for active, label 0 for inactive

Past entries and their recorded results:
[[record]]
molecule = "COc1ccc(/C=C2\\CCC(C)(CN(C)C)C2=O)cc1 (configuration not stated)"
group = "label 0"

[[record]]
molecule = "O=C(NC(CCCCN1C(=O)c2ccccc2C1=O)P(=O)(Oc1ccccc1)Oc1ccccc1)OCc1ccccc1 (configuration not stated)"
group = "label 1"

[[record]]
molecule = "CCOC(=O)/C=C\\c1c(Cl)n(-c2ccccc2)c(=O)n(-c2ccccc2)c1=O"
group = "label 0"

[[record]]
molecule = "O=C1c2ccccc2C(=O)N1/N=C1/SC(=N\\c2ccccc2)/C(=N/c2ccccc2)N1c1ccccc1"
group = "label 0"

[[record]]
molecule = "COC(=NC(C)C)NC(C)C"
group = "label 0"

[[record]]
molecule = "CCOC(=O)c1c(N)sc2c1C(C(=O)OCC)CCC2 (configuration not stated)"
group = "label 0"


Next molecule, please.
In: Tell me the recorded outcome of this test for Cc1c(C(=N)N)oc2ccccc12 .
Out: label 0
